Hello, the source for this data is patent US20250026748A1, in case you need it.

Target: PolQ ATPase enzyme (1-894) (Homo sapiens (Human))
Test: Polθ ATPase enzymatic assay (0.5 nM enzyme concentration), ADP-Glo
Assay type: biochemical
Details: average IC50; 0.5 nM PolQ ATPase enzyme (1-894)
Below is a list of entries, each paired with its recorded IC50 value.

- compound: "COc1cnc(C(F)F)cc1-c1cc(C[S+](C)[O-])ccc1C(=O)Nc1nnc(C#CC2CC2)s1 (stereo not shown)"
  studySystem: "PolQ ATPase enzyme (1-894) (Homo sapiens (Human))"
  measurementUnits: "nM"
  relationOperator: "="
  IC50: 2
- compound: "COc1cnc(C(F)F)cc1-c1cc(N2CCCC(C)(C)C2=O)ncc1C(=O)Nc1nnc(C#CC2CC2)s1"
  studySystem: "PolQ ATPase enzyme (1-894) (Homo sapiens (Human))"
  measurementUnits: "nM"
  relationOperator: "<"
  IC50: 0.25
- compound: "COc1cnc(C(F)F)cc1-c1cc(N2C(=O)CCC2=O)ccc1C(=O)Nc1nnc(C#CC2CC2)s1"
  studySystem: "PolQ ATPase enzyme (1-894) (Homo sapiens (Human))"
  measurementUnits: "nM"
  relationOperator: "="
  IC50: 1.5
- compound: "COc1cnc(C(F)F)cc1-c1cc(N2C(=O)COCC2C)ncc1C(=O)Nc1nnc(C#CC2CC2)s1 (stereo not shown)"
  studySystem: "PolQ ATPase enzyme (1-894) (Homo sapiens (Human))"
  measurementUnits: "nM"
  relationOperator: "="
  IC50: 0.46
- compound: "Cc1nnc(Cn2cc(-c3cc(C(F)F)ccc3Cl)c(C(=O)Nc3ncc(C#CC4CC4)s3)cc2=O)o1"
  studySystem: "PolQ ATPase enzyme (1-894) (Homo sapiens (Human))"
  measurementUnits: "nM"
  relationOperator: "="
  IC50: 0.26
- compound: "CN(C)C(=O)Cn1cc(-c2cc(C(F)F)ccc2Cl)c(C(=O)Nc2nnc(C#CC3CC3)s2)cc1=O"
  studySystem: "PolQ ATPase enzyme (1-894) (Homo sapiens (Human))"
  measurementUnits: "nM"
  relationOperator: "<"
  IC50: 0.25
- compound: "COc1cnc(C(F)F)cc1-c1cc(OCC2CCOCC2)ncc1C(=O)Nc1nnc(C#CC2CC2)s1"
  studySystem: "PolQ ATPase enzyme (1-894) (Homo sapiens (Human))"
  measurementUnits: "nM"
  relationOperator: "<"
  IC50: 0.25

----------
IC50 reference
Target: PolQ ATPase enzyme (1-894) (Homo sapiens (Human), UniProt O75417)
Sequence (O75417 1-894): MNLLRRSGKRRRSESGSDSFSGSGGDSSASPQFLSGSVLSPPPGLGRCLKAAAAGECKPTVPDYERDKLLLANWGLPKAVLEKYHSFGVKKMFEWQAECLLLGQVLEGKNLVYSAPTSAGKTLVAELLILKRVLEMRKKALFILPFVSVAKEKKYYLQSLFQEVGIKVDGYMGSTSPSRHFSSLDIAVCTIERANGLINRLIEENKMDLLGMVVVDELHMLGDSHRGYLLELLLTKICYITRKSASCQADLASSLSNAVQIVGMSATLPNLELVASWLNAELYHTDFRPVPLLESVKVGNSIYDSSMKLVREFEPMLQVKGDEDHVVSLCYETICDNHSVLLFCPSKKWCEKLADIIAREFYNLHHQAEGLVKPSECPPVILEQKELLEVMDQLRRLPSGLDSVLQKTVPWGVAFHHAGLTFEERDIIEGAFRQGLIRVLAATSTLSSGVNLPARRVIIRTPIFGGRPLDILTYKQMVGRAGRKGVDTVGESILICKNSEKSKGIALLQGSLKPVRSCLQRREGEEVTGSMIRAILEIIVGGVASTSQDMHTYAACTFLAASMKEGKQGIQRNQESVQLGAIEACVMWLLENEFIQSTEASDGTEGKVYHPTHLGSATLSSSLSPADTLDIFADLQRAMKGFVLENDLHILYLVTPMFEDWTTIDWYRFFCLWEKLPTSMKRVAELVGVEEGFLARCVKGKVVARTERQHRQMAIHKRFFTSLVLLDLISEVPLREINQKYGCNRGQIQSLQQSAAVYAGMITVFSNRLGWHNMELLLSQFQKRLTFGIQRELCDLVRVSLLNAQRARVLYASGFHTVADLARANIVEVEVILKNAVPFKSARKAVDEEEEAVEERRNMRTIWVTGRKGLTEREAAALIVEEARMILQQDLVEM
Experiment: Polθ ATPase enzymatic assay (0.5 nM enzyme concentration), ADP-Glo
Format: biochemical
Conditions: average IC50; 0.5 nM PolQ ATPase enzyme (1-894)

- molecule: "COc1cnc(C(F)F)cc1-c1cc(-c2cc(C#N)n(C)n2)ncc1C(=O)Nc1nnc(C#CC2CC2)s1 [Compound 371]"
  measurementUnits: "nM"
  relationOperator: "="
  IC50: 8.1
- molecule: "COc1cnc(C(F)F)cc1-c1cc(OCCOC(F)F)ncc1C(=O)Nc1nnc(C#CC2CC2)s1 [Compound 181]"
  measurementUnits: "nM"
  relationOperator: "="
  IC50: 0.75
- molecule: "COc1cnc(C(F)F)cc1-c1cc(C#CC(C)(C)CO)ccc1C(=O)Nc1nnc(C#CC2CC2)s1 [Compound 240]"
  measurementUnits: "nM"
  relationOperator: "="
  IC50: 0.73
- molecule: "COc1cnc(C(F)F)cc1-c1cc(N2CCN(C)CC2=O)ccc1C(=O)Nc1nnc(C#CC2CC2)s1 [Compound 109]"
  measurementUnits: "nM"
  relationOperator: "<"
  IC50: 0.25
- molecule: "COc1cnc(C(F)(F)F)cc1-c1cnccc1C(=O)Nc1nnc(C#CC2CC23CC3)s1 (stereo not shown) [Compound 69]"
  measurementUnits: "nM"
  relationOperator: "="
  IC50: 0.28
- molecule: "COc1cnc(Cl)cc1-c1cc(-c2n[nH]cc2C)ccc1C(=O)Nc1nnc(C#CC2CC2)s1 [Compound 298]"
  measurementUnits: "nM"
  relationOperator: "="
  IC50: 0.8
- molecule: "COc1ccc(C(F)(F)F)cc1-c1cc(-c2cnn(C)c2)ncc1C(=O)Nc1nnc(C#CC2CC2)s1 [Compound 296]"
  measurementUnits: "nM"
  relationOperator: "="
  IC50: 1.6
